Overview of reported IC50 across a group of molecules:
test.target: GDP-bound KRAS protein (aa 1-169), containing both G12C and C118A amino acid substitutions (Homo sapiens (Human), UniProt P01116, C118A/G12C)
Sequence (P01116 other isoform, or with tags, fused parts or gaps G12C/C118A): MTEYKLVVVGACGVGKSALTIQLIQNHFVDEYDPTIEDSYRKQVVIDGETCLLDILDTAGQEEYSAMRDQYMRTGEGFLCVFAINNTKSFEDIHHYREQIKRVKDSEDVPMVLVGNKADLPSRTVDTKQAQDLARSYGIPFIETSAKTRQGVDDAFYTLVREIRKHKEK
protocol.notes: Coupled nucleotide exchange assay (SOS-mediated nucleotide exchange, AlphaScreen)
Assay type: biochemical
condition.context: read-out: Coupled exchange IC50 (5 min; μM); 5 min compound pre-incubation

molecule	IC50, µM
C=CC(=O)N1C[C@H](C)N(c2nc(=O)n(-c3ccccc3C(C)C)c3nc(-c4ccccc4F)c(Cl)cc23)C[C@H]1C	0.093
C=CC(=O)N1CCN(c2nc(=O)n(-c3c(C)ccnc3C(C)C)c3nc(Cl)c(Cl)cc23)CC1CC#N (atropisomer, axis not shown; (M)) [Example 144-2-1]	63.7
C=CC(=O)N1C[C@H](C)N(c2nc(=O)n(-c3c(C)ccnc3C(C)C)c3nc(-c4ccsc4)c(Cl)cc23)C[C@H]1C (atropisomer, axis not shown; (M))	1.1
C=CC(=O)N1C[C@H](C)N(c2nc(=O)n3c4nc(c(Cl)cc24)-c2ccccc2C/C=C\Cc2ccccc2-3)C[C@H]1C (single isomer, unassigned) [Example 146-3-4]	7.96
C=CC(=O)N1C[C@H](C)N(c2nc(=O)n(-c3c(C(C)C)ncnc3C3CC3)c3nc(-c4ccccc4C)c(Cl)cc23)C[C@H]1C [Example 108-2]	0.049
C=CC(=O)N1CCN(c2nc(=O)n(-c3c(CN(C)C)cccc3C(C)C)c3nc(-c4ccccc4F)c(Cl)cc23)[C@@H](C)C1	0.043

* * *

test.target: GDP-bound KRAS protein (aa 1-169), containing both G12C and C118A amino acid substitutions (Homo sapiens (Human), UniProt P01116, C118A/G12C)
protocol.notes: Coupled nucleotide exchange assay (SOS-mediated nucleotide exchange, AlphaScreen)
Assay type: biochemical
condition.context: read-out: Coupled exchange IC50 (5 min; μM); 5 min compound pre-incubation
measurement.type: IC50 (µM)

compound	reading
C=CC(=O)N1C[C@H](C)N(c2nc(=O)n(-c3c(N(C)C)ccnc3C(C)C)c3nc(-c4c(F)cccc4NC(=O)CC)c(Cl)cc23)C[C@H]1C [Example 122-2]	0.357
C=CC(=O)N1C[C@H](C)N(c2nc(=O)n(-c3c(C)cc(P(C)(C)=O)cc3C(C)C)c3nc(-c4ccccc4F)c(Cl)cc23)C[C@H]1C [Example 102-7]	0.376
C=CC(=O)N1C[C@H](C)N(c2nc(=O)n(-c3c(C)cc(CN4CCCC4)nc3C(C)C)c3nc(-c4ccccc4F)c(Cl)cc23)C[C@H]1C [Example 121-2]	0.096
C=CC(=O)N1C[C@@H](C)N(c2nc(=O)n(-c3c(C)ccnc3C(C)C)c3nc(-c4ccccc4F)c(Cl)nc23)[C@@H](C)C1 [Example 106-7]	0.301
C=CC(=O)N1CCN(c2nc(=O)n(CC(C)(C)C#N)c3nc(-c4ccccc4F)c(Cl)cc23)[C@@H](C)C1 [Example 106-9]	3.7
C=CC(=O)N1C[C@H](C)N(c2nc(=O)n3c4nc(c(Cl)cc24)-c2ccccc2C/C=C/Cc2ccccc2-3)C[C@H]1C (single isomer, unassigned) [Example 146-3-1]	204

* * *

Overview of reported IC50 across a group of compounds:
test.target: GDP-bound KRAS protein (aa 1-169), containing both G12C and C118A amino acid substitutions (Homo sapiens (Human), UniProt P01116, C118A/G12C)
protocol.notes: Coupled nucleotide exchange assay (SOS-mediated nucleotide exchange, AlphaScreen)
Type: biochemical
condition.context: read-out: Coupled exchange IC50 (5 min; μM); 5 min compound pre-incubation
measurement.type: IC50 (µM)

compound	measure.unit	reading
C=CC(=O)N1C[C@H](C)N(c2n/c(=N\C)n(CC(C)(C)C)c3nc(-c4ccccc4F)c(Cl)cc23)C[C@H]1C [Example 151, 2,2,2-trifluoroacetate]	µM	0.348
C=CC(=O)N1CCN(c2nc(=O)n(-c3c(C)ccnc3C(C)C)c3nc(-c4c(O)cccc4F)c(F)cc23)C(C)C1C (single isomer, unassigned) [Example 124-14-2]	µM	59.5
C=CC(=O)N1CCN(c2nc(=O)n(-c3c(C)ccnc3C(C)C)c3nc(-c4c(N)cccc4F)c(Cl)cc23)CC1CC#N (atropisomer, axis not shown; (M)) [Example 144-1]	µM	0.166
C=CC(=O)N1C[C@H](C)N(c2nc(=O)n(-c3ccccc3C(C)C)c3c2CCN(c2ccccc2)C3)C[C@H]1C [Example 152]	µM	132
C=CC(=O)N1CCN(c2nc(=O)n(-c3c(C)ccnc3C(C)C)c3nc(-c4ccccc4F)c(Cl)cc23)CC1CC#N (atropisomer, axis not shown; (M)) [Example 145-2]	µM	0.344
C=CC(=O)N1C[C@H](C)N(c2nc(=O)n(-c3c(C)ccnc3C(C)C)c3nc(-c4cccc(Cl)c4)c(Cl)cc23)C[C@H]1C (atropisomer, axis not shown; (M)) [Example 92-54]	µM	0.169
C=CC(=O)N1CCN(c2nc(=O)n(-c3c(C)cc(N)nc3C(C)C)c3nc(-c4ccccc4F)c(Cl)cc23)[C@@H](C)C1 (single isomer, unassigned) [Example 183-2]	µM	0.058
C=CC(=O)N1C[C@H](C)N(c2nc(=O)n(-c3c(C)ccnc3C(C)C)c3nc(-c4cc(Cl)ccc4F)c(F)cc23)C[C@H]1C (atropisomer, axis not shown; (M)) [Example 94-5]	µM	0.708
C=CC(=O)N1C[C@H](C)N(c2nc(=O)n(-c3c(C(C)C)ccnc3C(=O)N(C)C)c3nc(-c4ccccc4F)c(Cl)cc23)C[C@H]1C [Example 102-8]	µM	184
C=CC(=O)N1C[C@H](C)N(c2nc(=O)n(-c3c(C)ccnc3C(C)C)c3nc(-c4ccccc4N)c(F)cc23)C[C@H]1C (atropisomer, axis not shown; (M)) [Example 94-20]	µM	0.452
C=CC(=O)N1C[C@H](C)N(c2nc(=O)n(-c3c(C)ccnc3C(C)C)c3nc(-c4c(F)cccc4C#N)c(Cl)cc23)C[C@H]1C (atropisomer, axis not shown; (M)) [Example 92-40]	µM	0.244

The reported numbers originate from patent US11285156B2.
